Reported pEC50 is given for each of the following compounds.
experimental system: VDR (Homo sapiens)
Sequence (P11473 whole entry, species assumed): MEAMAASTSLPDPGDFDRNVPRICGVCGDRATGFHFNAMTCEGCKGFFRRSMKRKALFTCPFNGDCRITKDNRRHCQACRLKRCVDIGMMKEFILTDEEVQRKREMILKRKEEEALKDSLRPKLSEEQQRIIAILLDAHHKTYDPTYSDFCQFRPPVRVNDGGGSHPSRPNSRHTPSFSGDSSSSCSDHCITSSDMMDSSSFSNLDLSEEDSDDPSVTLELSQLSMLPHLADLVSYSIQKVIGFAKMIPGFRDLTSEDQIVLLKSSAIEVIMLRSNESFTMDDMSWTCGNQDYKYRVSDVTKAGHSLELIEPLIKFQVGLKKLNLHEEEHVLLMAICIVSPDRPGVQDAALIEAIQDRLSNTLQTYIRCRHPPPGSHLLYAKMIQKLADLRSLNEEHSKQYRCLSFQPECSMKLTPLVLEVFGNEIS
assay summary: Hormone receptor signaling pathway selectivity: VDRE (VDR)
cond: biphasic model of action; read-out: EC50, stimulation of VDR activity
Units for pEC50: none; it is -log10 of a concentration expressed in mol/L.

Request: I have this compound here, C=C(CCC(C(=O)O)C1CCC2(C)C3=C(CCC12C)C1(C)CCC(O)C(C)(C)C1CC3)C(C)C (centres unmarked) [compound (XII)] , and I need its recorded pEC50.
Result: 5.82

More entries:
Request: I have this compound here, C=C(CCC(C(=O)O)C1CCC2(C)C3=CCC4C(C)(CCC(O)C4(C)C)C3=CCC12C)C(C)C (centres unmarked) [compound (X)] , and I need its recorded pEC50.
Result: 5.82

====

experimental system: ER-α (Homo sapiens)
Sequence (P03372 whole entry, species assumed): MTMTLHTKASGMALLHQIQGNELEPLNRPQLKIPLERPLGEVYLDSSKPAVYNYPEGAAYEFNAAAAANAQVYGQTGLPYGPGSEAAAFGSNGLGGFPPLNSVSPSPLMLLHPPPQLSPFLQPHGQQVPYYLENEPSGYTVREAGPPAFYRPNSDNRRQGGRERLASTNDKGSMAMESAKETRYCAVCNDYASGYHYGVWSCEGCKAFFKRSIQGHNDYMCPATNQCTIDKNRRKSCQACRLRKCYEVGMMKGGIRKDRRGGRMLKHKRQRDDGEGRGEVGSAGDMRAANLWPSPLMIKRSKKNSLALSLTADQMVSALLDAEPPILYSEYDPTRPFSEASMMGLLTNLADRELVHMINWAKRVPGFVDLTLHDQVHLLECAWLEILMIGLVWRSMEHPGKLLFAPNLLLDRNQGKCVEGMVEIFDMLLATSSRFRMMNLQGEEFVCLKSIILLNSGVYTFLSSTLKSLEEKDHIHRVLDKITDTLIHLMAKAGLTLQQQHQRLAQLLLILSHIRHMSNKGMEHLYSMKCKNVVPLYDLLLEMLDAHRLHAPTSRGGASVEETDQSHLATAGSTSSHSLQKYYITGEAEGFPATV
assay summary: Hormone receptor signaling pathway selectivity: ER-α mediated transcriptional response
Format: cell-based
cond: with E2; read-out: IC50, inhibition of E2 triggered ERα mediated transcriptional response
pIC50: −log10 of the molar value.
assay endpoint: pIC50

Request: I have this compound here, `C=C(CC[C@@H](C)[C@H]1CC[C@H]2C3=C(C(=O)C[C@]12C)[C@@]1(C)CCC(=O)[C@@H](C)[C@@H]1C[C@@H]3O)[C@@H](C)C(=O)O` , and I need its recorded pIC50.
Result: ~4.10

====

Reported pIC50 is given for each of the following molecules.
experimental system: UniProt:P11473
assay summary: Hormone receptor signaling pathway selectivity: VDRE (VDR)
Assay type: cell-based
cond: with VD3; read-out: VDRE with ligand VD3 (inhibition IC50)
pIC50: −log10 of the molar value.

Use these answered entries as a reference point.
Request: Identify the measured pIC50 of C=C(CCC(C(=O)O)C1CCC2(C)C3=CCC4C(C)(CCC(O)C4(C)C)C3=CCC12C)C(C)C (stereo not drawn) for UniProt:P11473.
Result: < 4.10

Request: Identify the measured pIC50 of C=C(CCC(C(=O)O)C1CCC2(C)C3=C(CCC12C)C1(C)CCC(O)C(C)(C)C1CC3)C(C)C (stereo not drawn) for UniProt:P11473.
Result: < 4.10

Here's the next entry for you.
Request: Identify the measured pIC50 of C=C(CCC(C(=O)O)[C@H]1C[C@H](OC(C)=O)[C@@]2(C)C3=CC[C@H]4C(C)(C)[C@@H](O)CC[C@]4(C)C3=CC[C@]12C)C(C)C (stereo partly drawn) for UniProt:P11473.
Result: < 4.10

====

experimental system: AR (Homo sapiens, UniProt P10275)
Sequence (P10275 1-920): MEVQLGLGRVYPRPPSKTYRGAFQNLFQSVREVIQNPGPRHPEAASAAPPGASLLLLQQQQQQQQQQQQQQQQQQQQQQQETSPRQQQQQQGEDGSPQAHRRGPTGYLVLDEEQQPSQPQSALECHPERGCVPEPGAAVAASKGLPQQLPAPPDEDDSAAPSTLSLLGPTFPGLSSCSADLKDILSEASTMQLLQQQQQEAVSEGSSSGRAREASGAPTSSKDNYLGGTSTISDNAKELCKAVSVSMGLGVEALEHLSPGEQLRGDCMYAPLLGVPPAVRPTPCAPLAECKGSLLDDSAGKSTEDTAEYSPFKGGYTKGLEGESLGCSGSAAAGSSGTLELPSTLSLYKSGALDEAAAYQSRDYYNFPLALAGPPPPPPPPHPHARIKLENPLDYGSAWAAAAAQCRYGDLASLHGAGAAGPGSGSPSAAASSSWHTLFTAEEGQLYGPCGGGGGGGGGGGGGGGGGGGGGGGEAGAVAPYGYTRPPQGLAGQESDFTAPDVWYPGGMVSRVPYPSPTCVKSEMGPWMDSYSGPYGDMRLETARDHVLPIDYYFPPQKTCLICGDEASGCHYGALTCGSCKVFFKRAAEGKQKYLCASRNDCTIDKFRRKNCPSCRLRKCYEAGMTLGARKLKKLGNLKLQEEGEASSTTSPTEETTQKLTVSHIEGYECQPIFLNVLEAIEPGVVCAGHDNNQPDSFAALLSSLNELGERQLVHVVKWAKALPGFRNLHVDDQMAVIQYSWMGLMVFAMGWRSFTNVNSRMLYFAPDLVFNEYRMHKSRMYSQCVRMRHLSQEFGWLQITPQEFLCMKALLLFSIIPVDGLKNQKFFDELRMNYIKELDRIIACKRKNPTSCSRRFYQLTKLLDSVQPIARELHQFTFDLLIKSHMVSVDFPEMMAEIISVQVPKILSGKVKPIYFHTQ
assay summary: Hormone receptor signaling pathway selectivity: AR
Type: cell-based
cond: with DHT; read-out: AR with ligand DHT (inhibition IC50)
pIC50: −log10 of the molar value.
assay endpoint: pIC50

Use these answered entries as a reference point.
Request: I have this compound here, C=C(CC[C@@H](C)[C@H]1CC[C@H]2C3=C(C(=O)C[C@]12C)[C@@]1(C)CCC(=O)[C@@H](C)[C@@H]1C[C@@H]3O)[C@H](C)C(=O)O [compound (III)] , and I need its recorded pIC50.
Result: < 4.10

Request: I have this compound here, C=C(CC[C@@H](C)[C@H]1CC[C@H]2C3=C(CC[C@]12C)[C@@]1(C)CC[C@@H](O)C(C)(C)[C@@H]1C[C@@H]3O)[C@@H](C)C(=O)O [compound (XI)] , and I need its recorded pIC50.
Result: < 4.10

Here's the next entry for you.
Request: I have this compound here, C=C(CC[C@@H](C(=O)O)[C@H]1C[C@H](O)[C@@]2(C)C3=CC[C@H]4C(C)(C)C(O)CC[C@]4(C)C3=CC[C@]12C)C(C)C (stereo partly drawn) [compound (VI)] , and I need its recorded pIC50.
Result: < 4.10
